Biological target: catalytic domain of human MMP9 (human)
Below, each of the binders is paired with its reported IC50 of inhibition of human MMP9 activity (cleavage of 5-FAM/QXL 520 FRET peptide, 37°C) value.
Give just the number in nM; leave the unit off.

Observe how each entry below is paired with its result.
| Binder | Experimental Result |
| --- | --- |
| N‐PEG (PEGylated N‐TIMP3) (domain or fragment, PEG, size and site not stated) CTCSPSHPQDAFCNSDIVIRAKVVGKKLVKEGPFGTLVYTIKQMKMYRGFTKMPHVQYIHTEASESLCGLKLEVNKYQYLLTGRVYDGKMYTGLCNFVERWDQLTLSQRKGLNYRYHLGC | 0.7 |
| v2‐HSA (TIMP3v2 fused with human serum albumin) (protein, additional glycosylation site (F34N)) CTCSPSHPQDAFCNSDIVIRASVVGKKLVKEGPNGTLVYTIKQMKMYRGFTKMPHVQYIHTEASESLCGLKLEVNKYQYLLTGRVYDGKMYTGLCNFVERWDQLTLSQRKGLNYRYHLGCNCKIKSCYYLPCFVTSKNECLWTDMLSNFGYPGYQSKHYACIRQKGGYCSWYRGWAPPDKSIINATDP | 16 |

Now consider the entry below.
Please give the documented IC50 of inhibition of human MMP9 activity (cleavage of 5-FAM/QXL 520 FRET peptide, 37°C) of v2‐PEG (TIMP3v2 PEGylated with 20 kDa polyethylene glycol) (natural protein, 20 kDa polyethylene glycol (PEG), site not stated; additional glycosylation site (F34N)) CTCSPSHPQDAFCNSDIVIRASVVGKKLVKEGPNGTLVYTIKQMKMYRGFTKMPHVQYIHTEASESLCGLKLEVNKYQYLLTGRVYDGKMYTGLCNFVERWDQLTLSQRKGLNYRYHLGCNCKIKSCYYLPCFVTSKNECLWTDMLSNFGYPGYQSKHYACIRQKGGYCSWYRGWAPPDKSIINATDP
9
